// provenance: patent US20070208085A1

Tested on: RPMI 8226
experiment.description: NCI human cell line panel cytotoxicity
Format: cell-based
assay.setup: Leuk, read-out: IC50
readout: IC50

Prompt: What does the record list as IC50 for CN(C)CCNc1ccc(NCCN(CCCl)CCCl)c2c1C(=O)c1c(O)ccc(O)c1C2=O [Compound IV] ?
Response: < 10 nM

###

Test system: PC3
experiment.description: NCI human cell line panel cytotoxicity
Type: cell-based
assay.setup: PC-3, Prostate, read-out: IC50 nM
readout: IC50 (nM)
Answers are plain numbers, in nM.

Prompt: What does the record list as IC50 for CN(C)CCNc1ccc(NCCN(CCCl)CCCl)c2c1C(=O)c1c(O)ccc(O)c1C2=O [Compound IV] ?
Response: 50
